Field: Population Mitochondria Different-Phenotype (%). Provide a value for each of the molecules that follow.
tested on: HEK-293T; assay: Multiplex assay against HEK293T; assay type: toxicity, cell-based; details: human, 12 h, 1 µM, compound concentration 1 uM, replicate 2
// units = %; emit number, no label

**Query** Recorded Population Mitochondria Different-Phenotype (%) of CCCN1CCC[C@@H]2Cc3n[nH]cc3C[C@H]21.Cl [QUINPIROLE HYDROCHLORIDE] , please.
**Result** 67

**Query** Recorded Population Mitochondria Different-Phenotype (%) of c1cc(OCCCN2CCCCC2)ccc1CN1CCCCC1 , please.
**Result** 53

**Query** Recorded Population Mitochondria Different-Phenotype (%) of CN1CCN2c3ncccc3Cc3ccccc3C2C1 (configuration not stated) , please.
**Result** 68

**Query** Recorded Population Mitochondria Different-Phenotype (%) of Cc1ccc(-c2ccc(F)cc2COc2ccc(CCC(=O)O)cc2)cc1 , please.
**Result** 50

**Query** Recorded Population Mitochondria Different-Phenotype (%) of Cc1nc2ccc(Oc3ccc(F)cc3)cc2c(=O)n1C[C@H]1CCCN(C(C)C)C1.Cl , please.
**Result** 69

**Query** Recorded Population Mitochondria Different-Phenotype (%) of Cc1ccc(F)cc1C(=O)Nc1ccc(C(=O)N2Cc3cccn3Cc3ccccc32)c(Cl)c1 , please.
**Result** 57

**Query** Recorded Population Mitochondria Different-Phenotype (%) of COc1c(C)cc(NC(=O)c2nn(Cc3ccc(F)cc3)c3c2CN(C(=O)c2ccc[nH]2)C[C@]3(C)C(N)=O)cc1C , please.
**Result** 58

---

tested on: HEK-293T; experiment: Multiplex assay against HEK293T; format: toxicity, cell-based; conditions: human, 48 h, 1 µM, compound concentration 1 uM, replicate 1
Field: Population Healthy Nuclei (%). Provide a value for each of the compounds that follow.
// units = %; emit number, no label

**Query** Recorded Population Healthy Nuclei (%) of Cl.Clc1ccc2nsnc2c1NC1=NCCN1 [TIZANIDINE HYDROCHLORIDE] , please.
**Result** 77

**Query** Recorded Population Healthy Nuclei (%) of O=C1COc2nccc(-c3ccccc3F)c2CN1Cc1cc(C(F)(F)F)cc(C(F)(F)F)c1 , please.
**Result** 80

**Query** Recorded Population Healthy Nuclei (%) of C[C@H]1[C@H]2CC[C@H]3[C@@H]4CC=C5C[C@@H](N(C)C)CC[C@]5(C)[C@H]4CC[C@]23CN1C , please.
**Result** 82

**Query** Recorded Population Healthy Nuclei (%) of N#Cc1c(N)nc(SCc2csc(-c3ccc(Cl)cc3)n2)c(C#N)c1-c1ccc(OCCO)cc1 , please.
**Result** 79

---

tested on: U2OS; experiment: Multiplex assay against U2OS; assay type: toxicity, cell-based; conditions: human, 48 h, 10 µM, compound concentration 10 uM, replicate 2
Field: Total Cell Count. Provide a value for each of the molecules that follow.

**Query** Recorded Total Cell Count of Cc1ccccc1C(=O)Nc1ccc(C(=O)N2CCCC(N(C)C)c3ccccc32)cc1.Cl (stereo not drawn) , please.
**Result** 93

**Query** Recorded Total Cell Count of CSc1ccccc1N1CCN(CCCCCC(=O)NC2CCCc3ccccc32)CC1.Cl (stereo not drawn) , please.
**Result** 109

**Query** Recorded Total Cell Count of Cc1ccc(F)cc1C(=O)Nc1ccc(C(=O)N2Cc3cccn3Cc3ccccc32)c(Cl)c1 , please.
**Result** 137

---

Field: Population Apoptotic (%). Provide a value for each of the compounds that follow.
test system: Fibroblast; experiment: Multiplex assay against human fibroblast; type: toxicity, cell-based; settings: 48 h, 10 µM, compound concentration 10 uM, replicate 2
// units = %; emit number, no label

**Query** Recorded Population Apoptotic (%) of CC(C)(C)c1ccc(S(=O)(=O)Nc2ccc(Cl)cc2C(=O)c2cc[n+]([O-])cc2)cc1 , please.
**Result** 46

**Query** Recorded Population Apoptotic (%) of CC(=O)NCCc1c(Cc2ccccc2)[nH]c2ccccc12 , please.
**Result** 54

**Query** Recorded Population Apoptotic (%) of Cc1nc2ccc(Oc3ccc(F)cc3)cc2c(=O)n1C[C@H]1CCCN(C(C)C)C1.Cl , please.
**Result** 68

**Query** Recorded Population Apoptotic (%) of COc1c(C)cc(NC(=O)c2nn(Cc3ccc(F)cc3)c3c2CN(C(=O)c2ccc[nH]2)C[C@]3(C)C(N)=O)cc1C , please.
**Result** 77

**Query** Recorded Population Apoptotic (%) of N[C@@]1(C(=O)O)CO[C@H]2[C@H](C(=O)O)[C@H]21 , please.
**Result** 42

**Query** Recorded Population Apoptotic (%) of CCCn1c(=O)c2[nH]c(C3CCCC3)nc2n(CCC)c1=O , please.
**Result** 50

**Query** Recorded Population Apoptotic (%) of O=S(=O)(c1ccccc1)c1cnc2c(N3CCNCC3)cccc2c1 [INTEPIRDINE] , please.
**Result** 40

**Query** Recorded Population Apoptotic (%) of Cc1ccccc1C(=O)Nc1ccc(C(=O)N2CCCC(N(C)C)c3ccccc32)cc1.Cl (centres undefined) , please.
**Result** 73

**Query** Recorded Population Apoptotic (%) of CN(C)CCCc1cc(C(=O)Nc2ccc(-c3ccncc3)cc2)ccc1O.Cl.Cl , please.
**Result** 51

---

Field: Population Apoptotic (%). Provide a value for each of the molecules that follow.
system: Fibroblast; assay: Multiplex assay against human fibroblast; type: toxicity, cell-based; details: 12 h, 1 µM, compound concentration 1 uM, replicate 2
// units = %; emit number, no label

**Query** What reported Population Apoptotic (%) corresponds to CC(C)(C)c1ccc(S(=O)(=O)Nc2ccc(Cl)cc2C(=O)c2cc[n+]([O-])cc2)cc1 on Fibroblast?
**Result** 50

**Query** What reported Population Apoptotic (%) corresponds to O=C(NCCO)c1cccc(-c2cc(Nc3ccc(OC(F)(F)F)cc3)ncn2)c1 on Fibroblast?
**Result** 38

**Query** What reported Population Apoptotic (%) corresponds to CCOc1c2c(c(OCC)c3ncccc13)CN(c1ccc(CS(=O)(=O)NC(=O)Cc3ccccc3OC)cc1C)C2=O on Fibroblast?
**Result** 38

**Query** What reported Population Apoptotic (%) corresponds to O=S(=O)(c1ccccc1)c1cnc2c(N3CCNCC3)cccc2c1 [INTEPIRDINE] on Fibroblast?
**Result** 34

**Query** What reported Population Apoptotic (%) corresponds to Cc1nc2ccc(Oc3ccc(F)cc3)cc2c(=O)n1C[C@H]1CCCN(C(C)C)C1.Cl on Fibroblast?
**Result** 44

**Query** What reported Population Apoptotic (%) corresponds to O=C1COc2nccc(-c3ccccc3F)c2CN1Cc1cc(C(F)(F)F)cc(C(F)(F)F)c1 on Fibroblast?
**Result** 29

**Query** What reported Population Apoptotic (%) corresponds to CC1(COc2ccc3c(c2)ncn3-c2ccc3cccc(N4CCC(N)CC4)c3n2)COC1 on Fibroblast?
**Result** 18

**Query** What reported Population Apoptotic (%) corresponds to CC(=O)NCCc1c(Cc2ccccc2)[nH]c2ccccc12 on Fibroblast?
**Result** 40

**Query** What reported Population Apoptotic (%) corresponds to CN1CCN(c2nc3cc(C(F)(F)F)ccc3n3cccc23)CC1.O=C(O)/C=C\C(=O)O.O=C(O)/C=C\C(=O)O on Fibroblast?
**Result** 26

**Query** What reported Population Apoptotic (%) corresponds to CSc1ccccc1N1CCN(CCCCCC(=O)NC2CCCc3ccccc32)CC1.Cl (configuration not stated) on Fibroblast?
**Result** 50

**Query** What reported Population Apoptotic (%) corresponds to CN(C)c1ccnc2sc3c(=O)n(N4CCCCCC4)cnc3c12 on Fibroblast?
**Result** 30

**Query** What reported Population Apoptotic (%) corresponds to COc1c(C)cc(NC(=O)c2nn(Cc3ccc(F)cc3)c3c2CN(C(=O)c2ccc[nH]2)C[C@]3(C)C(N)=O)cc1C on Fibroblast?
**Result** 46

**Query** What reported Population Apoptotic (%) corresponds to O=C(O)c1cc2ccccc2c(Cc2c(O)c(C(=O)O)cc3ccccc23)c1O on Fibroblast?
**Result** 32

**Query** What reported Population Apoptotic (%) corresponds to Cc1ccc(F)cc1C(=O)Nc1ccc(C(=O)N2Cc3cccn3Cc3ccccc32)c(Cl)c1 on Fibroblast?
**Result** 50

**Query** What reported Population Apoptotic (%) corresponds to COc1ccc2c(c1)C(C(=O)N(Cc1ccc(N(C)C)cc1)c1ccc(C(C)C)cc1)CCC2.Cl (configuration not stated) on Fibroblast?
**Result** 45

**Query** What reported Population Apoptotic (%) corresponds to Cc1ccc(C(C)(O)c2nc3ccccc3s2)c(C)c1 (configuration not stated) on Fibroblast?
**Result** 44

**Query** What reported Population Apoptotic (%) corresponds to CCCn1c(=O)c2[nH]c(C3CCCC3)nc2n(CCC)c1=O on Fibroblast?
**Result** 30

**Query** What reported Population Apoptotic (%) corresponds to COc1cc(C(=O)N(CCCc2ccccc2)Cc2ccc(CC(=O)O)cc2)cc(OC)c1C on Fibroblast?
**Result** 42

**Query** What reported Population Apoptotic (%) corresponds to Cc1ccc(/C(=C\CN2CCCC2)c2ccccn2)cc1 on Fibroblast?
**Result** 41

**Query** What reported Population Apoptotic (%) corresponds to Cl.Clc1ccc2nsnc2c1NC1=NCCN1 [TIZANIDINE HYDROCHLORIDE] on Fibroblast?
**Result** 33

**Query** What reported Population Apoptotic (%) corresponds to C[C@H]1[C@H]2CC[C@H]3[C@@H]4CC=C5C[C@@H](N(C)C)CC[C@]5(C)[C@H]4CC[C@]23CN1C on Fibroblast?
**Result** 29

**Query** What reported Population Apoptotic (%) corresponds to N[C@@]1(C(=O)O)CO[C@H]2[C@H](C(=O)O)[C@H]21 on Fibroblast?
**Result** 44
